The compounds listed here are annotated with their log10 GI50.
- System: PC-3 (prostate cancer, no ETS translocation) cell line
- ASSAY REMARKS: 72 h growth inhibition (GI50) assay in PC-3
- STUDY CONDITIONS: read-out: PC-3 Prostate cancer No ETS Translocation GI50; 72 h growth inhibition, PC-3 cells
RECORDED ENDPOINT: log10 GI50 (log10 of the value in nM)

[[record]]
compound = "C=CCn1cc(CC(NC(=O)C(OC)C2Cc3cc4cc(OC5CC(OC6CC(O)C(O)C(C)O6)C(O)C(C)O5)c(C)c(O)c4c(O)c3C(=O)C2OC2CC(OC3CC(OC4CC(C)(O)C(O)C(C)O4)C(O)C(C)O3)C(O)C(C)O2)C(=O)OC)c2ccccc21 (stereo not shown)"
tested_target = "PC-3 (prostate cancer, no ETS translocation) cell line"
reported = 3.50

[[record]]
compound = "COC(=O)C(Cc1c[nH]c2ccc([N+](=O)[O-])cc12)NC(=O)C(OC)C1Cc2cc3cc(OC4CC(OC5CC(O)C(O)C(C)O5)C(O)C(C)O4)c(C)c(O)c3c(O)c2C(=O)C1OC1CC(OC2CC(OC3CC(C)(O)C(O)C(C)O3)C(O)C(C)O2)C(O)C(C)O1 (stereo not shown)"
tested_target = "PC-3 (prostate cancer, no ETS translocation) cell line"
reported = 2.81

[[record]]
compound = "COC(=O)C(Cc1c[nH]c2ccccc12)NC(=O)C(Cc1c[nH]c2ccccc12)NC(=O)C(OC)C1Cc2cc3cc(OC4CC(OC5CC(O)C(O)C(C)O5)C(O)C(C)O4)c(C)c(O)c3c(O)c2C(=O)C1OC1CC(OC2CC(OC3CC(C)(O)C(O)C(C)O3)C(O)C(C)O2)C(O)C(C)O1 (stereo not shown)"
tested_target = "PC-3 (prostate cancer, no ETS translocation) cell line"
reported = 2.75

[[record]]
compound = "C=CCc1cccc2c(CC(NC(=O)C(OC)C3Cc4cc5cc(OC6CC(OC7CC(O)C(O)C(C)O7)C(O)C(C)O6)c(C)c(O)c5c(O)c4C(=O)C3OC3CC(OC4CC(OC5CC(C)(O)C(O)C(C)O5)C(O)C(C)O4)C(O)C(C)O3)C(=O)OC)c[nH]c12 (stereo not shown)"
tested_target = "PC-3 (prostate cancer, no ETS translocation) cell line"
reported = 3.48

[[record]]
compound = "COC(=O)C(Cc1c[nH]c2cc(-n3cc(-c4ccccc4)nn3)ccc12)NC(=O)C(OC)C1Cc2cc3cc(OC4CC(OC5CC(O)C(O)C(C)O5)C(O)C(C)O4)c(C)c(O)c3c(O)c2C(=O)C1OC1CC(OC2CC(OC3CC(C)(O)C(O)C(C)O3)C(O)C(C)O2)C(O)C(C)O1 (stereo not shown)"
tested_target = "PC-3 (prostate cancer, no ETS translocation) cell line"
reported = 3.77

[[record]]
compound = "COC(=O)C(Cc1ccccc1)NC(=O)C(Cc1ccccc1)NC(=O)C(OC)C1Cc2cc3cc(OC4CC(OC5CC(O)C(O)C(C)O5)C(O)C(C)O4)c(C)c(O)c3c(O)c2C(=O)C1OC1CC(OC2CC(OC3CC(C)(O)C(O)C(C)O3)C(O)C(C)O2)C(O)C(C)O1 (stereo not shown)"
tested_target = "PC-3 (prostate cancer, no ETS translocation) cell line"
reported = 3.05


====

- Tested on: TC-32 (Ewing sarcoma, EWS-FLI1 Type 1) cell line
- STUDY CONDITIONS: selectivity, GI50 in PC-3 over GI50 in TC-32
Listed here are molecules together with their documented GI50 ratio PC-3:TC-32.
RECORDED ENDPOINT: GI50 ratio PC-3:TC-32

[[record]]
molecule = "COC(=O)C(Cc1c[nH]c2ccccc12)NC(=O)C(Cc1ccccc1)NC(=O)C(OC)C1Cc2cc3cc(OC4CC(OC5CC(O)C(O)C(C)O5)C(O)C(C)O4)c(C)c(O)c3c(O)c2C(=O)C1OC1CC(OC2CC(OC3CC(C)(O)C(O)C(C)O3)C(O)C(C)O2)C(O)C(C)O1 (stereo not shown)"
reported = 24.0

[[record]]
molecule = "COC(=O)C(Cc1ccc2ccccc2c1)NC(=O)C(OC)C1Cc2cc3cc(OC4CC(OC5CC(O)C(O)C(C)O5)C(O)C(C)O4)c(C)c(O)c3c(O)c2C(=O)C1OC1CC(OC2CC(OC3CC(C)(O)C(O)C(C)O3)C(O)C(C)O2)C(O)C(C)O1 (stereo not shown)"
reported = 3.0

[[record]]
molecule = "C=CCc1cccc2c(CC(NC(=O)C(OC)C3Cc4cc5cc(OC6CC(OC7CC(O)C(O)C(C)O7)C(O)C(C)O6)c(C)c(O)c5c(O)c4C(=O)C3OC3CC(OC4CC(OC5CC(C)(O)C(O)C(C)O5)C(O)C(C)O4)C(O)C(C)O3)C(=O)OC)c[nH]c12 (stereo not shown)"
reported = 3.8

[[record]]
molecule = "COC(=O)C(Cc1cn(C)c2ccccc12)NC(=O)C(OC)C1Cc2cc3cc(OC4CC(OC5CC(O)C(O)C(C)O5)C(O)C(C)O4)c(C)c(O)c3c(O)c2C(=O)C1OC1CC(OC2CC(OC3CC(C)(O)C(O)C(C)O3)C(O)C(C)O2)C(O)C(C)O1 (stereo not shown)"
reported = 11.2

